B1: TPR t1 (parent)
chain: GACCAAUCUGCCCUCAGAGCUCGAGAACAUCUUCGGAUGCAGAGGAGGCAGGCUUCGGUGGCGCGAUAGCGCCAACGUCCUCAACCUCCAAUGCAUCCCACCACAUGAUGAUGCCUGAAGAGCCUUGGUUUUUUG

- Variants of: B1
- ASSAY_COMMENT: polymerase ribozyme fitness, log enrichment relative to wild type (log ratio); higher = more active; in vitro selection for triplet polymerase activity
READOUT_LABEL: polymerase ribozyme fitness (log ratio)

## Task Value lookup for polymerase ribozyme fitness (log ratio); key = C13G G57C C73A G110A
## Result -2.44

## Task Value lookup for polymerase ribozyme fitness (log ratio); key = C3U G39C G117U U133G
## Result -4.12

## Task Value lookup for polymerase ribozyme fitness (log ratio); key = U38C C40U A46U U55A C73U
## Result -3.3

## Task Value lookup for polymerase ribozyme fitness (log ratio); key = G39U C98U
## Result -1.66

## Task Value lookup for polymerase ribozyme fitness (log ratio); key = C11U C85G
## Result -2.37

## Task Value lookup for polymerase ribozyme fitness (log ratio); key = A2U C13U G77C
## Result -1.85

## Task Value lookup for polymerase ribozyme fitness (log ratio); key = C4U G48U U92G G113C
## Result -3.72

## Task Value lookup for polymerase ribozyme fitness (log ratio); key = G44C C53G C73U C82U C99G C124G
## Result -7.17

## Task Value lookup for polymerase ribozyme fitness (log ratio); key = C8G C34U G39U G58A A84U
## Result -5.29

## Task Value lookup for polymerase ribozyme fitness (log ratio); key = G42A C56A U96G
## Result -2.79

## Task Value lookup for polymerase ribozyme fitness (log ratio); key = C49A A74G
## Result -0.173

## Task Value lookup for polymerase ribozyme fitness (log ratio); key = A41U A100C U106A U132C
## Result -2.89

## Task Value lookup for polymerase ribozyme fitness (log ratio); key = C4A U7G G69C A90C U112C C123U
## Result -3.35

## Task Value lookup for polymerase ribozyme fitness (log ratio); key = G60U G93A
## Result -0.449

## Task Value lookup for polymerase ribozyme fitness (log ratio); key = C12U C15U U38C A43C C123A
## Result -1.45

## Task Value lookup for polymerase ribozyme fitness (log ratio); key = G36A C56A
## Result -1.03

## Task Value lookup for polymerase ribozyme fitness (log ratio); key = G44U G63A U78A G117C
## Result -6.55

## Task Value lookup for polymerase ribozyme fitness (log ratio); key = G39A C64U
## Result 0.0887

## Task Value lookup for polymerase ribozyme fitness (log ratio); key = U131C U132A
## Result -0.543

## Task Value lookup for polymerase ribozyme fitness (log ratio); key = C4U C13U U38A C53A
## Result -1.25

## Task Value lookup for polymerase ribozyme fitness (log ratio); key = C8A G60U
## Result -0.464

## Task Value lookup for polymerase ribozyme fitness (log ratio); key = G42C C49U G63A G120A G128U
## Result -5.69

## Task Value lookup for polymerase ribozyme fitness (log ratio); key = C12U C22U U59C C85G
## Result -4.46

## Task Value lookup for polymerase ribozyme fitness (log ratio); key = G39U G52U C70U
## Result -2.08

## Task Value lookup for polymerase ribozyme fitness (log ratio); key = C4G C8G A26G G120U
## Result -0.664

## Task Value lookup for polymerase ribozyme fitness (log ratio); key = A5G C85U G113U G122U
## Result -3.92

## Task Value lookup for polymerase ribozyme fitness (log ratio); key = G10U C15U C56A C72G G120A
## Result -0.935

## Task Value lookup for polymerase ribozyme fitness (log ratio); key = U32C A41U C124G G128A
## Result -1.01

## Task Value lookup for polymerase ribozyme fitness (log ratio); key = G57U G110A G127A
## Result -2.29

## Task Value lookup for polymerase ribozyme fitness (log ratio); key = G10A G61U A100C G135U
## Result -1.17

## Task Value lookup for polymerase ribozyme fitness (log ratio); key = C56U A105U
## Result -2.17

## Task Value lookup for polymerase ribozyme fitness (log ratio); key = A27G A83G C86U
## Result -2.33

## Task Value lookup for polymerase ribozyme fitness (log ratio); key = C40G G77A C97U
## Result -4.09

## Task Value lookup for polymerase ribozyme fitness (log ratio); key = C13U G39U C73A A83U A121U
## Result 1.24

## Task Value lookup for polymerase ribozyme fitness (log ratio); key = G69U A119G
## Result 1.7

## Task Value lookup for polymerase ribozyme fitness (log ratio); key = C3A C8A C70G
## Result -3.71

## Task Value lookup for polymerase ribozyme fitness (log ratio); key = U30C G45U
## Result -4.52

## Task Value lookup for polymerase ribozyme fitness (log ratio); key = G47U U96C A118G
## Result -1.69

## Task Value lookup for polymerase ribozyme fitness (log ratio); key = A18C G48A A119G G120A U126A
## Result -3.21

## Task Value lookup for polymerase ribozyme fitness (log ratio); key = C3U U112A
## Result 0.197

## Task Value lookup for polymerase ribozyme fitness (log ratio); key = C73A U125A
## Result -0.432
